# Target Under Test: Adenosine A2 receptor (Rattus norvegicus, UniProt P29276+P30543)
# Method: Binding affinity against Adenosine-2 receptor with [3H]-NECA in rat striatal membranes.
# Type: cell membranes
This listing pairs molecules with measured Ki.
Give the value in µM but do not write µM after it.

Molecule | Ki [µM]
CCCc1nnc2c(NC3CCCC3)nc3ccccc3n12 | 1.83
CCc1nnc2c(NC3CC4CCC3C4)nc3ccccc3n12 (stereo not given) | 6.1
CCc1nnc2c(NC3CCCCC3)nc3ccccc3n12 | 4

Answer with reported Ki of `CCc1nnc2c(NC3CCCC3)nc3ccccc3n12` 3

Answer with reported Ki of `CCc1nnc2c(NC3CC3)nc3ccccc3n12` 4.5

Answer with reported Ki of `CCc1nnc2c(Nc3ccccc3)nc3ccccc3n12` 11.8

====

# Target Under Test: Adenosine receptors; A1 & A2 (Rattus norvegicus) (UniProt P29276+P25099+P30543)
# Method: Ratio of Ki at A2 and A1 receptors
# Type: protein assay
Measurement Label: Ratio
The answer should be a number; do not append a unit.

Compound | Ratio
CCc1nnc2c(NC3CC3)nc3ccccc3n12 | 17.3
CCc1nnc2c(NCC(C)O)nc3ccccc3n12 (stereo not given) | 67
CCc1nnc2c(Nc3ccccc3)nc3ccccc3n12 | 18.7
CCc1nnc2c(NC3CCCC3)nc3ccccc3n12 | 107
CCCc1nnc2c(NC3CCCC3)nc3ccccc3n12 | 47
CC(C)Nc1nc2ccccc2n2cnnc12 | 3
CCc1nnc2c(NC(C)C)nc3ccccc3n12 | 17.5
CCc1nnc2c(NC3CCCCC3)nc3ccccc3n12 | 50
Cc1nnc2c(NC3CCCC3)nc3ccccc3n12 | 79
FC(F)(F)c1nnc2c(NC3CCCC3)nc3ccccc3n12 | 138

Answer with reported Ratio of `c1ccc2c(c1)nc(NC1CCCC1)c1nncn12` 37

Answer with reported Ratio of CCc1nnc2c(NC3CC4CCC3C4)nc3ccccc3n12 (stereo not given) 139

Answer with reported Ratio of `CCN(CC)c1nc2ccccc2n2cnnc12` 2.1

Answer with reported Ratio of `CCc1nnc2c(NC3CCC3)nc3ccccc3n12` 29

====

# Target Under Test: Adenosine receptor A1 (Rattus norvegicus, UniProt P25099)
# Sequence (P25099 whole entry): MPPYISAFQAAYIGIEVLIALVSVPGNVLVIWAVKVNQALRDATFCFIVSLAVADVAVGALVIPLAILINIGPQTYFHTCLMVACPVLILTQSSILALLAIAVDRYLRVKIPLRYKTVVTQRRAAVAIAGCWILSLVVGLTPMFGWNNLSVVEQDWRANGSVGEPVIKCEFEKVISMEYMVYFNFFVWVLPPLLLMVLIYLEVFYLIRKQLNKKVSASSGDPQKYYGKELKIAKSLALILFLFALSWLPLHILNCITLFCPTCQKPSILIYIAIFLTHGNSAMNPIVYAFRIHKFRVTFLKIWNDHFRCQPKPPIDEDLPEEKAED
# Method: Binding affinity towards adenosine A1 receptor using [3H]N-cyclohexyladenosine in rat whole brain membranes.
Entry class follows Ki: LOW: < 40 nM; MEDIUM: ≥ 40 nM and < 300 nM; HIGH: ≥ 300 nM

Use the examples below as a reference point.
Molecule | Group
CCc1nnc2c(NC3CC4CCC3C4)nc3ccccc3n12 (stereo not given) | MEDIUM
CCc1nnc2c(NCC(C)O)nc3ccccc3n12 (stereo not given) | HIGH
CCc1nnc2c(NC3CC3)nc3ccccc3n12 | MEDIUM

Returns: class label. Input: `FC(F)(F)c1nnc2c(NC3CCCC3)nc3ccccc3n12` LOW

Returns: class label. Input: `CC(C)Nc1nc2ccccc2n2cnnc12` HIGH

Returns: class label. Input: `CCCCc1nnc2c(NC3CCCC3)nc3ccccc3n12` MEDIUM

Returns: class label. Input: `CCc1nnc2c(NC3CCCC3)nc3ccccc3n12` LOW

Returns: class label. Input: `CCc1nnc2c(Nc3ccccc3)nc3ccccc3n12` HIGH

Returns: class label. Input: `CCN(CC)c1nc2ccccc2n2cnnc12` HIGH

Returns: class label. Input: `CCc1nnc2c(NC(C)C)nc3ccccc3n12` MEDIUM
